test system: ABL2; conditions: concentration: 1 μM, replicates: in singlicate; n = 1;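 further: KINOMEscan kinase panel screen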
Quick reference for %Inh among some compounds
Just the number please, in %, no unit attached.

// worked examples, %Inh included
CN(c1ccc2c(c1)nc(NCc1ccccc1)n2C)c1ccnc(Nc2ccc(CS(C)(=O)=O)cc2)n1.Cl [GW811603] : 54
CS(=O)(=O)c1cccc(CNc2nc(Nc3ccc4c(c3)CCC(=O)N4)ncc2C(F)(F)F)c1 : 0
CC(=O)Nc1cn2nc(Oc3cccc(NC(=O)c4cccc(C(F)(F)F)c4)c3)ccc2n1 : 99.3

Query block: Hello, I am looking for reported %Inh with ABL2 for CC(C)NCC(Cc1ccccc1)NC(=O)c1cc(Br)c(-c2ccnc3[nH]ccc23)s1.Cl.Cl (centres unmarked) [GSK1383281] . Could you help?
Result block: 5

###

Catalogue of %Inh values
test system: CDK4-cyclinD1; conditions: concentration: 1 μM, replicates: in singlicate; n = 1
Give the value, in units of %, as a plain number.

Answered examples (7):
Cc1cccc(Nc2nc(N[C@H]3CCCC[C@H]3N)ncc2C(N)=O)c1.Cl [GSK986310] : 0
CN(c1ccc(F)c(NC(=O)c2cccc(OC(C)(C)C#N)c2Cl)c1)c1ccc2nc(NC(=O)C3CC3)sc2n1 : 4
COc1ccc(C)c(Nc2ccnc(Nc3ccc(-c4cnc[nH]4)cc3)n2)c1.Cl [GW784041] : 0
Cc1ccccc1CC(=O)N1CCc2cc(-c3cn(C)c4ncnc(N)c34)ccc21 [GSK2603346] : 0
Cc1cccc(Nc2nc(NCCN)ncc2C(N)=O)c1 [GSK1292139] : 0
COC(=O)Nc1nc2cc(Oc3ccc(NC(=O)Nc4cccc(SC)c4)cc3)ccc2[nH]1.Cl [GW697999] : 34
CN(c1ccc2c(c1)nc(NCc1ccccc1)n2C)c1ccnc(Nc2ccc(CS(C)(=O)=O)cc2)n1.Cl [GW811603] : 35

Here is the next item to consider.
Query block: Any idea what %Inh was measured for COc1cccc(C2=C(Nc3cccc(O)c3)C(=O)NC2=O)c1 [SB-390771] ?
Result block: 0

###

test system: RSK2(Kin.Dom.1-N-terminal); construct: gene RPS6KA3; conditions: concentration: 1 μM, replicates: in singlicate; n = 1
So basically, if %Inh comes in under 1% it's 1.0, and if it's 1% or more it's 0.0.

Before answering, review these 10 worked examples.
COc1cccc2c(-c3ccncc3)c(-c3ccc(F)cc3)nn12 [GW468513] : 1.0
COc1ccc(C2=C(Nc3cccc(O)c3)C(=O)NC2=O)cc1 [SB-390766] : 0.0
Cl.N#CCc1ccc(Nc2nccc(Nc3ccc(Oc4ccccc4)cc3)n2)cc1 [GW639905] : 1.0
CC(C)c1nc(-c2ccc(F)c(NS(=O)(=O)c3c(F)cccc3F)c2)c(-c2ccnc(Nc3ccc(N4CCOCC4)nc3)n2)s1 [GSK1804250] : 0.0
Cc1ccc(O)cc1Nc1ccnc2ccc(C(C)(C)C)cc12 [GW856805] : 0.0
CSc1ccc(NC2=C(c3ccc(Cl)cc3)C(=O)NC2=O)cc1 [SB-317658] : 0.0
Cc1nn2c(=O)cc(N3CCO[C@H](C)C3)nc2n1Cc1cccc(Cl)c1Cl [GSK2373693] : 0.0
CCn1c(-c2nonc2N)nc2c(-c3ccccc3)ncc(OCCCN)c21.O=C(O)C(F)(F)F.O=C(O)C(F)(F)F [GSK260205] : 0.0
CN(C)CCNS(=O)(=O)c1ccc(-c2ccnc3[nH]ccc23)cc1 [GSK977620] : 0.0
Cl.Cl.NCC(NC(=O)c1cc(-c2cccnc2)c(-c2ccnc3[nH]ccc23)s1)c1ccccc1 (stereo not drawn) [GSK1323434] : 0.0

Query block: Dear colleague, could you confirm whether %Inh of Fc1cc(Cl)ccc1Nc1ccnc2cc(-c3ccc(CN4CCSCC4)o3)ccc12 [GW560106] falls below 1%? Thanks.
Result block: 1.0

Query block: Is %Inh strictly under 1% for the entry CN(c1ccc(NC(=O)N2CCN(CCCN3CCOCC3)CC2)cc1)c1ccnc(Nc2ccc(CS(C)(=O)=O)cc2)n1.Cl [GW830899] ?
Result block: 1.0

Query block: Bench note: check whether O=C(O)C(F)(F)F.O=c1[nH]ccc2nc(N[C@@H]3CCNC3)nc(Nc3ccc4c(c3)S(=O)(=O)CC4)c12 [GSK2181306] shows %Inh below 1%
Result block: 0.0

Query block: Strictly below 1% in %Inh? CC(=O)Nc1cn2nc(Oc3cccc(NC(=O)c4cccc(C(F)(F)F)c4)c3)ccc2n1
Result block: 1.0

Query block: Problem: For the compound Cc1ccc(-c2ccc3occ(-c4ccc(S(C)=O)cc4)c3c2)nn1 (stereo not drawn) , is %Inh under 1%?
Result block: 1.0
